Test system: human organs
Assay: Absorbed doses of radiation, estimates for human organs (OLINDA software)
Settings: human organ: Stomach Wall
value kind: radiation dose estimate, Stomach Wall (mSv/MBq)
Numbers only here, please. The scale is mSv/MBq.

Fetch value of radiation dose estimate, Stomach Wall on human organs for O=C([O-])CN1CCN(CC(=O)[O-])CCN(CC(=O)N2CCO[C@]3(CC[C@H](C(=O)N[C@@H](Cc4ccc5ccccc5c4)C(=O)NCCCC[C@H](NC(=O)N[C@@H](CCC(=O)O)C(=O)O)C(=O)O)CC3)C2)CCN(CC(=O)[O-])CC1.[68Ga+3] [^68Ga-v] .
8.54E−02

Look up and report measured radiation dose estimate, Stomach Wall (human organs) for the following molecule: O=C([O-])CN1CCN(CC(=O)[O-])CCN(CC(=O)N2CCO[C@]3(CC[C@H](C(=O)N[C@@H](Cc4ccc5ccccc5c4)C(=O)NCCCC[C@H](NC(=O)N[C@@H](CCC(=O)O)C(=O)O)C(=O)O)CC3)C2)CCN(CC(=O)[O-])CC1.[177Lu+3] [^177Lu-v]
2.73E−02

Using human organs as the test system, report measured radiation dose estimate, Stomach Wall of O=C([O-])CN1CCN(CC(=O)[O-])CCN(CC(=O)NCC2CCC(C(=O)N[C@@H](Cc3ccc4ccccc4c3)C(=O)NCCCC[C@H](NC(=O)N[C@@H](CCC(=O)O)C(=O)O)C(=O)O)CC2)CCN(CC(=O)[O-])CC1.[68Ga+3] (stereo partly shown) [^68Ga-PSMA-617, reference compound] .
1.91E−02

Under human organs, report radiation dose estimate, Stomach Wall for O=C([O-])CN1CCN(CC(=O)[O-])CCN(CC(=O)NCC2CCC(C(=O)N[C@@H](Cc3ccc4ccccc4c3)C(=O)NCCCC[C@H](NC(=O)N[C@@H](CCC(=O)O)C(=O)O)C(=O)O)CC2)CCN(CC(=O)[O-])CC1.[177Lu+3] (stereo partly shown) [^177Lu-PSMA-617, reference compound]
8.22E−03
